Measured % binding (parent = 100) values are reported for all entries that follow.
Tested On: T1, human C5 (human, UniProt P01031 19-673; P01031 678-1676, Beta and alpha chains are disulfide-linked and the protein is glycosylated.)
T1 construct: Either in-house recombinant C5 or plasma derived C5 (CALBIOCHEM) was used; also called recombinant human C5; plasma derived human C5
Test Protocol: Biacore, captured antibody, pH 7.4, 37 C;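 further: biacore binding response of anti-C5 antibody light chain variants captured on chip with human C5 injected, ACES running buffer containing 1.2 mM CaCl₂, parent light chain antibody set to 100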
Readout Kind: % binding (parent = 100) (%)

[
  {
    "Binder": "CFP0021 21L 94T (antibody, V domains shown) VH: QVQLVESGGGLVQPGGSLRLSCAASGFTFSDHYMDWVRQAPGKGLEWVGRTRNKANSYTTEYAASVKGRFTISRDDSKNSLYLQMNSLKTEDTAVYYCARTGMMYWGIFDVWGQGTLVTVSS VL: DIQMTQSPSSLSASVGDRVTITCRASQSIEDDLAWYQQKPGKAPKLLIYHASTLQSGVPSRFSGSGSGTDFTLTISSLQPEDFATYYCQQHDSTPLTFGQGTKVEIK",
    "Readout Kind": "% binding (parent = 100)",
    "Number": 1.3
  },
  {
    "Binder": "CFP0011 11L 31A (antibody, V domains shown) VH: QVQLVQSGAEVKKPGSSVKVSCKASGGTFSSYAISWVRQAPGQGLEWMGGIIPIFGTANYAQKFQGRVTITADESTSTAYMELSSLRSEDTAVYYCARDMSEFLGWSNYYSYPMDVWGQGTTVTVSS VL: DIQMTQSPSSLSASVGDRVTITCRASQSIEADLAWYQQKPGKAPKLLIYHASSLQSGVPSRFSGSGSGTDFTLTISSLQPEDFATYYCQQSDNSPYTFGQGTKVEIK",
    "Readout Kind": "% binding (parent = 100)",
    "Number": 112
  },
  {
    "Binder": "CFP0015 15L 31Q (antibody, V domains shown) VH: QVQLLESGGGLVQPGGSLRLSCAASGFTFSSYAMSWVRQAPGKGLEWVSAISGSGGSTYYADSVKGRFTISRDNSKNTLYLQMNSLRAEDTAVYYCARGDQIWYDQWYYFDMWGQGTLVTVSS VL: DIQMTQSPSSLSASVGDRVTITCRASQSIEQDLAWYQQKPGKAPKLLIYEASNLQSGVPSRFSGSGSGTDFTLTISSLQPEDFATYYCQQYDSSPLTFGQGTKVEIK",
    "Readout Kind": "% binding (parent = 100)",
    "Number": 25.8
  },
  {
    "Binder": "CFP0015 15L 31A (antibody, V domains shown) VH: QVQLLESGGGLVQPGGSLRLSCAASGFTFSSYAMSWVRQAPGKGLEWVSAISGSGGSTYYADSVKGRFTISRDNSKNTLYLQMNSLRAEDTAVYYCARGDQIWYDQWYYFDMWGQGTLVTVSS VL: DIQMTQSPSSLSASVGDRVTITCRASQSIEADLAWYQQKPGKAPKLLIYEASNLQSGVPSRFSGSGSGTDFTLTISSLQPEDFATYYCQQYDSSPLTFGQGTKVEIK",
    "Readout Kind": "% binding (parent = 100)",
    "Number": 30
  },
  {
    "Binder": "CFP0011 11L 53H (antibody, V domains shown) VH: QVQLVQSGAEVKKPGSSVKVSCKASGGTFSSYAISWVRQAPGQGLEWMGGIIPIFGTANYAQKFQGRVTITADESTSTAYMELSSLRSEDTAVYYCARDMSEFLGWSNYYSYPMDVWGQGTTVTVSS VL: DIQMTQSPSSLSASVGDRVTITCRASQSIEDDLAWYQQKPGKAPKLLIYHASHLQSGVPSRFSGSGSGTDFTLTISSLQPEDFATYYCQQSDNSPYTFGQGTKVEIK",
    "Readout Kind": "% binding (parent = 100)",
    "Number": 115
  },
  {
    "Binder": "CFP0017 17L 91Y (antibody, V domains shown) VH: QVQLVQSGAEVKKPGSSVKVSCKASGGTFSSYAISWVRQAPGQGLEWMGGIIPIFGTANYAQKFQGRVTITADESTSTAYMELSSLRSEDTAVYYCARGGWWGGALDYWGQGTLVTVSS VL: DIQMTQSPSSLSASVGDRVTITCRASQSIEDDLAWYQQKPGKAPKLLIYHASSLQSGVPSRFSGSGSGTDFTLTISSLQPEDFATYYCQQYDSYPLTFGQGTKVEIK",
    "Readout Kind": "% binding (parent = 100)",
    "Number": 0.3
  },
  {
    "Binder": "CFP0015 15L 30N (antibody, V domains shown) VH: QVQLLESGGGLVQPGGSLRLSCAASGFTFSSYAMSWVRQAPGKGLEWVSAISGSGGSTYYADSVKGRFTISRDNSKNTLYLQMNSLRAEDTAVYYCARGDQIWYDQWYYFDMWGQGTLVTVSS VL: DIQMTQSPSSLSASVGDRVTITCRASQSINDDLAWYQQKPGKAPKLLIYEASNLQSGVPSRFSGSGSGTDFTLTISSLQPEDFATYYCQQYDSSPLTFGQGTKVEIK",
    "Readout Kind": "% binding (parent = 100)",
    "Number": 21.4
  },
  {
    "Binder": "CFP0015 15L 32T (antibody, V domains shown) VH: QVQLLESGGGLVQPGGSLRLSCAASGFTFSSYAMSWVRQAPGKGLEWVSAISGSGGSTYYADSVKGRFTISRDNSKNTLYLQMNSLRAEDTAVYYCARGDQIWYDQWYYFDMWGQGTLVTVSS VL: DIQMTQSPSSLSASVGDRVTITCRASQSIEDTLAWYQQKPGKAPKLLIYEASNLQSGVPSRFSGSGSGTDFTLTISSLQPEDFATYYCQQYDSSPLTFGQGTKVEIK",
    "Readout Kind": "% binding (parent = 100)",
    "Number": 78.1
  },
  {
    "Binder": "CFP0021 21L 32Q (antibody, V domains shown) VH: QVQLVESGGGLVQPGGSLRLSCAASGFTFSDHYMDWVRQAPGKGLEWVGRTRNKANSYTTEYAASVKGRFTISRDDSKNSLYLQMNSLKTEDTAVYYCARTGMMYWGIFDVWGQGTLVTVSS VL: DIQMTQSPSSLSASVGDRVTITCRASQSIEDQLAWYQQKPGKAPKLLIYHASTLQSGVPSRFSGSGSGTDFTLTISSLQPEDFATYYCQQHDSYPLTFGQGTKVEIK",
    "Readout Kind": "% binding (parent = 100)",
    "Number": 80.4
  },
  {
    "Binder": "CFP0015 15L 93R (antibody, V domains shown) VH: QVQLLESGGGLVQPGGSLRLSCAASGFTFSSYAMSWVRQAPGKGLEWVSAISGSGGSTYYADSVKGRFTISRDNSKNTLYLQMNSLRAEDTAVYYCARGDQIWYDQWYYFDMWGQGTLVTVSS VL: DIQMTQSPSSLSASVGDRVTITCRASQSIEDDLAWYQQKPGKAPKLLIYEASNLQSGVPSRFSGSGSGTDFTLTISSLQPEDFATYYCQQYDRSPLTFGQGTKVEIK",
    "Readout Kind": "% binding (parent = 100)",
    "Number": 96
  }
]
